# Experimental System: JAK1 (Homo sapiens)
# Construct: made in house; host or cells: SF9 insect cells (baculovirus)
# Sequence (P23458 852-1154): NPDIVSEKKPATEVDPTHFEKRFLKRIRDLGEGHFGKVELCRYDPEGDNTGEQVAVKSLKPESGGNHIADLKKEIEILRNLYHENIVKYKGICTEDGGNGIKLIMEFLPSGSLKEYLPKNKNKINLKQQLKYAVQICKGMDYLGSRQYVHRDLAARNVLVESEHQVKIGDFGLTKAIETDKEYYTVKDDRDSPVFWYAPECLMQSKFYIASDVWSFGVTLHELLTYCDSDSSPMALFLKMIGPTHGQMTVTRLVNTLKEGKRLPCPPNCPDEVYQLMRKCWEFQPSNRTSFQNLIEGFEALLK
# Test Name: JAK1 inhibition (Table 4)
# Assay type: biochemical
# Measurement Parameters: read-out: JAK1 Ki
Hi there, I'd appreciate the recorded Ki for every entry that follows.
Numbers only, in µM.

// for each molecule in input: emit Ki
1. OC[C@]1(O)CC[C@H](n2nnc3cnc4[nH]ccc4c32)CC1
2. C[C@@H](O)c1nc2cnc3[nH]ccc3c2n1[C@H]1CC[C@H](NCC(F)(F)F)C1
3. Cn1nccc1C(=O)N1CCC(n2cnc3cnc4[nH]ccc4c32)CC1
4. Cc1nc2cnc3[nH]ccc3c2n1[C@H]1CCC[C@](C)(O)C1
5. CCc1nccn1CCc1nc2cnc3[nH]ccc3c2n1C1CCN(CCC#N)CC1

Solution:
0.0115
0.00172
0.0116
0.0103
0.0235

---

Hi there, I'd appreciate the recorded Ki for every entry that follows.
# Experimental System: JAK1 (Homo sapiens)
# Construct: made in house; host or cells: SF9 insect cells (baculovirus)
# Test Name: JAK1 inhibition (Table 4)
# Format: biochemical
# Measurement Parameters: read-out: JAK1 Ki
Answers are plain numbers, in nM.

Some entries whose results are on file:
Problem: What value of measured Ki is listed for FC(F)c1nc2cnc3[nH]ccc3c2n1C1CCN(Cc2ccccc2)CC1 [Example 299] ?
Solution: 2.5

Problem: // repeat for OC1CCN(Cc2nc3cnc4[nH]ccc4c3n2C2CCN(CC(F)F)CC2)CC1 [Example 705] and report
Solution: 48.6

Problem: // repeat for CC(C)(C)OC(=O)N1CCC[C@H](CN[C@H]2CC[C@H](n3cnc4cnc5[nH]ccc5c43)CC2)C1 [Example 565] and report
Solution: 90.8

Here's the next entry for you.
Problem: What value of measured Ki is listed for N#CCCN1CCC(n2c(CNS(=O)(=O)C3CCCC3)nc3cnc4[nH]ccc4c32)CC1 [Example 499] ?
Solution: 13.8

---

# Experimental System: JAK2 (Homo sapiens, UniProt O60674)
# Construct: made in house; host or cells: SF9 insect cells (baculovirus)
# Sequence (O60674 812-1132): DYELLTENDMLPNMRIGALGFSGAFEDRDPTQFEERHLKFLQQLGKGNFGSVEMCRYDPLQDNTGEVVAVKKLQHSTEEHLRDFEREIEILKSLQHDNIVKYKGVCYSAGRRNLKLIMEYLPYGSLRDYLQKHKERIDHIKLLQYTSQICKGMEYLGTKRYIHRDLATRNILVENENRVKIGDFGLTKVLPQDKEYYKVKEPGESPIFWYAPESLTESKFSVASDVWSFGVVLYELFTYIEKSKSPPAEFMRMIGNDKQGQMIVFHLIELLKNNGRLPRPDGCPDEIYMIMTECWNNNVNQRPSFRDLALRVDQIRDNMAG
# Test Name: JAK2 inhibition (Table 4)
# Format: biochemical
# Measurement Parameters: read-out: JAK2 Ki
Hi there, I'd appreciate the recorded pKi for every entry that follows.
Give bare numbers, as −log10 of the molar value.

Some entries whose results are on file:
Problem: Lab note: need pKi with JAK2 (Homo sapiens, UniProt O60674) for entry CC(=O)NCCOC(=O)N[C@H]1CC[C@H](n2cnc3cnc4[nH]ccc4c32)CC1 [Example 599] , please look it up.
Solution: 7.58

Problem: // repeat for CCOC(=O)N1CCC[C@@H](n2c([C@@H](C)O)nc3cnc4[nH]ccc4c32)C1 [Example 800] and report
Solution: 5.84

Problem: // repeat for c1cc2c(ncc3ncn(C4CCCOC4)c32)[nH]1 (single isomer, unassigned) [Example 465] and report
Solution: 7.30

// for each molecule in input: emit pKi
1. COC(=O)NC1CCC(n2cnc3cnc4[nH]ccc4c32)C1 (racemic) [Example 734]
2. O=C(Cc1nc2cnc3[nH]ccc3c2n1C1CCCOC1)NC1CCC(F)(F)CC1 (racemic) [Example 972]
3. COCCN1CCC[C@@H](n2cnc3cnc4[nH]ccc4c32)C1 [Example 61]
4. O=C(CN1CCC[C@@H](n2cnc3cnc4[nH]ccc4c32)C1)c1ccccc1 [Example 225]
5. c1cnn(Cc2nc3cnc4[nH]ccc4c3n2C2CCNCC2)c1 [Example 204]
6. Cc1n[nH]c(C)c1CCc1nc2cnc3[nH]ccc3c2n1C1CCOCC1 [Example 471]
7. N#Cc1ccc(N[C@H]2CC[C@H](n3cnc4cnc5[nH]ccc5c43)CC2)nc1 [Example 176]

Solution:
1. 8.09
2. 6.95
3. 6.60
4. 6.90
5. 5.81
6. 6.11
7. 8.15
